# ASSAYED SYSTEM: Rat recombinant α2,3(O)ST (Rattus norvegicus, UniProt Q11205)
# Construct: purchased Calbiochem
# Sequence (Q11205 whole entry): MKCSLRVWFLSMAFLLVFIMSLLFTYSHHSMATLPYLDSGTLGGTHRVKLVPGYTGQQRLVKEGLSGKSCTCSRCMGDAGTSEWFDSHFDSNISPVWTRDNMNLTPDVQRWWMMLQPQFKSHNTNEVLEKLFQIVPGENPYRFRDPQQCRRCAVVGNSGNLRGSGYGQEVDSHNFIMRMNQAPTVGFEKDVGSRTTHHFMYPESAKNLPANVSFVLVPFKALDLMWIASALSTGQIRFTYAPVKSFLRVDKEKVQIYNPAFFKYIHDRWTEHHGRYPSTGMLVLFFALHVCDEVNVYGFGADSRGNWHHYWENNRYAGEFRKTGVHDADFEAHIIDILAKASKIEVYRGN
# EXPERIMENT SUMMARY: Sialyltransferase assay with cloned α2,3(O)ST
# Assay type: biochemical
# SETUP CONDITIONS: Table IV; compound 7.5 mM; relative to Galβ1,3(GlcNAcβ1,6)GalNAcα-O—Al
PROPERTY MEASURED: Sialyltransferase activity (%) Cloned α2,3(O)ST
Please append the unit to your numeric answer.

Examples with answers:
>  <COMPOUND>
C=CCO[C@H]1O[C@H](CO[C@@H]2O[C@H](CO)[C@@H](O)[C@H](O)[C@H]2NC(C)=O)[C@H](O)[C@H](O[C@@H]2O[C@H](CO)[C@H](O)[C@H](O)[C@H]2O)[C@H]1NC(C)=O

>  <RESULT>
100.0%

$$$$
>  <COMPOUND>
CC(=O)NC1C(OCC2OC(OCc3ccccc3)C(NC(C)=O)C(OC3OC(CO)C(O)C(OS(=O)(=O)O)C3O)C2O)OC(CO)C(O)C1O (stereo not shown)

>  <RESULT>
54.7%

$$$$
>  <COMPOUND>
CC(=O)N[C@H]1[C@H](OC[C@H]2O[C@H](OCc3ccccc3)[C@H](NC(C)=O)[C@@H](O[C@@H]3O[C@H](CO)[C@H](O)[C@H](O)[C@H]3O[C@@H]3O[C@@H](C)[C@@H](O)[C@@H](O)[C@@H]3O)[C@H]2O)O[C@H](CO)[C@@H](O)[C@@H]1O

>  <RESULT>
45.4%

$$$$

// switching to the query compound
Q. Return value of Sialyltransferase activity (%) Cloned α2,3(O)ST for input CO[C@H]1[C@@H](O)[C@@H](CO)O[C@@H](O[C@H]2[C@@H](O)[C@@H](CO[C@@H]3O[C@H](CO)[C@@H](O)[C@H](O)[C@H]3NC(C)=O)O[C@H](OCc3ccccc3)[C@@H]2NC(C)=O)[C@@H]1O , no commentary.
A. 24.7%

###

# ASSAYED SYSTEM: Rat recombinant α2,6(N)ST (Rattus norvegicus, UniProt P13721)
# Construct: purchased Calbiochem
# Sequence (P13721 whole entry): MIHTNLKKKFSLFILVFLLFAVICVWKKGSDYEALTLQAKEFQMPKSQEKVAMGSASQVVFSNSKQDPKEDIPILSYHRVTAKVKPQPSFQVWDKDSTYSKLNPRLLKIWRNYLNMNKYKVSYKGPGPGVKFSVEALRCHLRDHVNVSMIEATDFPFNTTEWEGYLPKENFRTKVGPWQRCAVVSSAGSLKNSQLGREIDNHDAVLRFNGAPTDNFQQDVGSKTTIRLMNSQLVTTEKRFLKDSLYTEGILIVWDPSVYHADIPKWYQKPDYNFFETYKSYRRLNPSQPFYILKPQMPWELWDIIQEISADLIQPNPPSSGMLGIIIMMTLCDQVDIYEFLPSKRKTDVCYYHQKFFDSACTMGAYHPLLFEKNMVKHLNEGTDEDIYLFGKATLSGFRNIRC
# EXPERIMENT SUMMARY: Sialyltransferase assay with cloned α2,6(N)ST
# Type: biochemical
# SETUP CONDITIONS: Table I; acceptor 7.5 mM; 100% = 43500 CPM (Galβ1,4GlcNAcβ-O—Al)
Sialyltransferase activity (%) Cloned α2,6(N)ST reference
Please respond with the number in % and leave the unit unwritten.

>  <COMPOUND>
CO[C@H]1[C@@H](O)[C@@H](CO)O[C@@H](O[C@H]2[C@H](O)[C@@H](NC(C)=O)C(O)O[C@@H]2CO)[C@@H]1O (stereo partly drawn) [3-O-MeGalβ1,4GlcNAc]

>  <READOUT NUMBER>
8.7

$$$$

// switching to the query compound
Q. State the measured Sialyltransferase activity (%) Cloned α2,6(N)ST (Rat recombinant α2,6(N)ST (Rattus norvegicus, UniProt P13721)) of CO[C@H]1O[C@H](CO)[C@H](O)[C@H](O[C@@H]2O[C@H](CO)[C@H](O)[C@H](O[C@@H]3O[C@H](C)[C@H](O)[C@H](O)[C@H]3O)[C@H]2NC(C)=O)[C@H]1O [D-Fucβ1,3GalNAcβ1,3Galα-O-Me]
A. 2.5

Where do the numbers come from? From patent US20100221763A1.
